Please go through the items and note down their IC50.
- target.entity: i20S (20S immunoproteasome) (Homo sapiens, UniProt P20618+P28062)
- assay: 20S proteasome assay, chymotrypsin-like activity (LLVY), i20S
- Type: biochemical
- experimental.context: LLVY i20S Hu 1 h CONT: IC50 (nM), succinyl-Leu-Leu-Val-Tyr-AMC
Output spec: scalar in nM, unitless text.

Bench note, i20S (20S immunoproteasome) (Homo sapiens, UniProt P20618+P28062): entry COCCC(=O)N[C@H](C)C(=O)N[C@@H](Cc1ccc(OC)cc1)C(=O)N[C@@H](CC1CCCC1)C(=O)[C@@]1(C)CO1 , its IC50 = 570

Bench note, i20S (20S immunoproteasome) (Homo sapiens, UniProt P20618+P28062): entry COC(=O)N[C@H](C)C(=O)N[C@@H](Cc1ccc(OC)cc1)C(=O)N[C@@H](Cc1ccccc1)C(=O)[C@@]1(C)CO1 , its IC50 = 414

Bench note, i20S (20S immunoproteasome) (Homo sapiens, UniProt P20618+P28062): entry COc1ccc(C[C@H](NC(=O)[C@@H](C)NC(=O)C2=C(C)c3ccccc3C2)C(=O)N[C@@H](Cc2ccccc2)C(=O)[C@@]2(C)CO2)cc1 , its IC50 = 55.2
